Data origin, for the record: patent US20240279207A1

Test system: ESR1 transcription in MVLN cells
Test Summary: MVLN reporter assay: repression of ESR1 transcription (luciferase signal)
Format: cell-based
Setup Conditions: Homo sapiens, MVLN, 24 h, luciferase signal after 24 h, read-out: MVLN reporter assay, IC50 [M] (arithmetic mean)
Parameter Measured: IC50 (M)

Sample answers from the record:
{"columns": ["Smiles Text", "IC50 (M)"],
 "data": [
  ["COc1ccc(-c2cccnc2)cc1S(=O)(=O)NC(=O)c1cc2c(F)cc(N3CCC3)cc2o1", "5.5e-07"],
  ["CCOc1ccc(C(F)(F)F)cc1S(=O)(=O)NC(=O)c1cc2c(F)cc(N3CCC3)cc2o1", "5.86e-08"],
  ["O=C(NS(=O)(=O)c1cccc2ccc(Cl)nc12)c1cc2c(F)cc(N3CCC3)cc2o1", "5.41e-08"],
  ["Cc1ccc(S(=O)(=O)NC(=O)c2cc3c(F)cc(N4CCC4)cc3o2)c(OC(F)F)c1", "6.09e-07"],
  ["Cc1ccc2cccc(S(=O)(=O)NC(=O)c3cc4c(F)cc(N5CCC5)cc4o3)c2n1", "3.23e-08"],
  ["CC(C)c1ccc(C(C)C)c(S(=O)(=O)NC(=O)c2cc3c(F)cc(N4CCC4)cc3o2)c1", "4.18e-07"]
]}

[P] O=C(NS(=O)(=O)c1cccc2c1S(=O)(=O)CCC2)c1cc2c(F)cc(N3CCC3)cc2o1
[Q] COc1ccc(C2=CCN(C)CC2)cc1S(=O)(=O)NC(=O)c1cc2c(F)cc(N3CCC3)cc2o1
Problem: // pick larger IC50 from pair: P vs Q Your answer should be the label of the entry you select.
Result: Q
(Q: 3.78e-06 M, P: 5.12e-07 M)

[I] CC(C)(C)c1ccc(OC2CC2)c(S(=O)(=O)NC(=O)c2cc3c(F)cc(N4CCC4)cc3o2)c1
[II] CCc1cccc(OC)c1S(=O)(=O)NC(=O)c1cc2c(F)cc(N3CCC3)cc2o1
[III] COc1ccc(C(C)(C)C)cc1S(=O)(=O)NC(=O)c1cc2c(F)cc(N3CC(F)C3)cc2o1
Problem: Arrange by IC50, high to low. Provide your answer as the labels ordered per the instruction.
Result: II, I, III
(II: 1.4e-07 M, I: 2.76e-08 M, III: 5.97e-09 M)

[A] Cc1ccc2cccnc2c1S(=O)(=O)NC(=O)c1cc2c(F)cc(N3CCC3)cc2o1
[B] O=C(NS(=O)(=O)c1cc(CO)ccc1OC(F)(F)F)c1cc2c(F)cc(N3CCC3)cc2o1
[C] O=C(NS(=O)(=O)c1ccccc1C(=O)N1CCOCC1)c1cc2c(F)cc(N3CCC3)cc2o1
Problem: Order the records, beginning with the lowest IC50 and ending with the highest. Provide your answer as the labels ordered per the instruction.
Result: A, C, B
(A: 1.58e-07 M, C: 2.56e-06 M, B: 6.48e-06 M)
